- procedureSummary: chemical genetic growth profiling, strain panel (AID 1159580);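 further: tested at 20 µM; growth read once vehicle control cultures reached saturation at 30 °C; 1 = growth at the plate median or of vehicle wells; lower values mean less growth of the strain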
- assaySetup: S. cerevisiae deletion strains, growth OD, locus YNL153C, strain GIM3, active compounds read low
Hit rate of the full screen: of about 5,500 compounds, about 2,000 (36%) were called active. Another 18% or so got no clear call; they are omitted. The list shows a part of the results.
# normalized growth annotations

Below are worked cases with known answers.
>>> print(df.to_string())
                                   compound     recordedvalue
0                  c1ccc2c(N3CCNCC3)cccc2c1  0.991 (inactive)
1                    NCc1ccc(S(N)(=O)=O)cc1   1.01 (inactive)
2  CC1=C(C(=O)O)N2C(=O)[C@@H](NC(=O)C(N)C3=CCC=CC3)[C@H]2SC1 (some centres undefined)   1.01 (inactive)

Enquiry: Which normalized growth is listed for NC(=O)CCC(N)C(=O)O (centres undefined) ?
Return: 0.99 (inactive)

Enquiry: Recorded normalized growth of CC1=C(/C=C/C(C)=C/C=C/C(C)=C/C=C/C=C(C)/C=C/C=C(C)/C=C/C2=C(C)CCCC2(C)C)C(C)(C)CCC1 , please.
Return: 1.01 (inactive)

Enquiry: Look up normalized growth: CC1=C(/C=C/C(C)=C/C=C/C(C)=C/C(=O)O)C(C)(C)CCC1
Return: 1.01 (inactive)

Enquiry: Please look up its normalized growth: C[C@](N)(Cc1ccc(O)c(O)c1)C(=O)O
Return: 1.01 (inactive)

Enquiry: # query: normalized growth of entry COS(C)(=O)=O
Return: 0.976 (inactive)

Enquiry: # lookup: normalized growth of O=C(O)CCNC(=S)Nc1cccc(C(F)(F)F)c1
Return: 1.01 (inactive)

---

- procedureSummary: chemical genetic growth profiling, strain panel (AID 1159580);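 further: tested at 20 µM; growth read once vehicle control cultures reached saturation at 30 °C; 1 = growth at the plate median or of vehicle wells; lower values mean less growth of the strain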
- assaySetup: S. cerevisiae deletion strains, growth OD, locus YJL092W, strain hpr5, active compounds read low
The campaign covered roughly 5,500 compounds. About 2,000 (36%) were called active. Not shown: some 18% with an inconclusive outcome. The list shows a part of the results.
Define the label as 1.0 when normalized growth is strictly less than 1 and as 0.0 in all remaining cases.

Below, 2 molecules whose answers are already recorded.
molecule	classLabel
CC1=C(/C=C/C(C)=C/C=C/C(C)=C\C(=O)O)C(C)(C)CCC1	1.0
CN(Cc1cc(Br)cc(Br)c1N)C1CCCCC1	0.0

Enquiry: Consider CC1(C)CC2C1CCC1(C)OC1CCC2(C)O (centres undefined) . Does its normalized growth lie strictly below 1?
Return: 0.0

Enquiry: Confirm or reject: normalized growth of C=CCc1cc(OC)c2c(c1OC)OCO2 lies strictly below 1
Return: 1.0

---

Recorded measurements of normalized growth, one per entry
- procedureSummary: chemical genetic growth profiling, strain panel (AID 1159580);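 further: tested at 20 µM; growth read once vehicle control cultures reached saturation at 30 °C; 1 = growth at the plate median or of vehicle wells; lower values mean less growth of the strain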
- assaySetup: S. cerevisiae deletion strains, growth OD, locus YNL233W, strain BNI4, active compounds read low
Out of some 5,500 compounds screened, about 2,000 (36%) were called active. Another 18% or so got no clear call; they are omitted. The list shows a part of the results.
Enter a number only.

# example entries with known answers
In [3]: df
Out[3]:
                                   compound  attributemeasured  recordedvalue
0  O=C(/C=C/c1ccc(O)c(O)c1)O[C@@H]1C[C@](O)(C(=O)O)C[C@@H](O)[C@H]1O  normalized growth           1.02
1  CC(Cc1ccc(O)c(O)c1)(NN)C(=O)O (centres undefined)  normalized growth          0.982
2                     CC12CCC(CC1)C(C)(C)O2  normalized growth           1.01
3  CC12CCC3C(CC=C4CC(O)CCC43C)C1CCC2=O (centres undefined)  normalized growth          0.889

Enquiry: Any idea what normalized growth was measured for NC(=O)c1cc[n+](CC2=C(C(=O)O)N3C(=O)C(NC(=O)C(c4ccccc4)S(=O)(=O)[O-])C3SC2)cc1 (centres undefined) ?
Return: 1.01

Enquiry: Tell me the measured normalized growth of COc1cc(/C=C/C(=O)O)ccc1O , please.
Return: 1.01

Enquiry: Look up normalized growth for this compound: CC[C@@H]1[C@@H](O)N2C3C[C@H]1C1C(O)[C@]4(C[C@@H]12)c1ccccc1N(C)[C@@H]34 (some centres undefined)
Return: 0.977

Enquiry: Dear colleague, I am looking for the recorded normalized growth of the following compound: CC(=O)O[C@H]1CC[C@@]2(C)C(=CCC3C2CC[C@@]2(C)C3CC[C@@H]2C(C)CCCC(C)C)C1 (some centres undefined)
Return: 1

Enquiry: Entry C=CCN1CC[C@]23c4c5ccc(O)c4OC2C(=O)CC[C@@]3(O)[C@H]1C5 (some centres undefined) has what normalized growth?
Return: 1.03
